test: Approximate solubility in various solvents by aliquot addition, visual dissolution; format: physicochemical; details: organic solvent or mixture, thermodynamic from solid, solvent: ethyl acetate (wet); amorphous obtained by Preparation Method 3
TEST READOUT: solubility

Q: // returns reported solubility for input Cc1ccsc1C(=CCCN1CCC[C@@H](C(=O)O)C1)c1sccc1C.Cl [tiagabine HCl amorphous, tiagabine hydrochloride]
Result: > 1190 mg/mL

###

experiment: Approximate solubility in various solvents by aliquot addition, visual dissolution; type: physicochemical; conditions: organic solvent or mixture, thermodynamic from solid, solvent: Trifluoroethanol; amorphous obtained by Preparation Method 3
TEST READOUT: solubility

Q: // returns reported solubility for input Cc1ccsc1C(=CCCN1CCC[C@@H](C(=O)O)C1)c1sccc1C.Cl [tiagabine HCl amorphous, tiagabine hydrochloride]
Result: > 713 mg/mL

###

assay: Approximate solubility in various solvents by aliquot addition, visual dissolution; format: physicochemical; conditions: organic solvent or mixture, thermodynamic from solid, solvent: ethyl acetate; amorphous obtained by Preparation Method 3
TEST READOUT: solubility

Q: // returns reported solubility for input Cc1ccsc1C(=CCCN1CCC[C@@H](C(=O)O)C1)c1sccc1C.Cl [tiagabine HCl amorphous, tiagabine hydrochloride]
Result: < 24 mg/mL

###

test: Approximate solubility in various solvents by aliquot addition, visual dissolution; assay type: physicochemical; conditions: organic solvent or mixture, thermodynamic from solid, solvent: methyl-tert-butyl ether; amorphous obtained by Preparation Method 3
TEST READOUT: solubility

Q: // returns reported solubility for input Cc1ccsc1C(=CCCN1CCC[C@@H](C(=O)O)C1)c1sccc1C.Cl [tiagabine HCl amorphous, tiagabine hydrochloride]
Result: < 14 mg/mL

###

test: Approximate solubility in various solvents by aliquot addition, visual dissolution; type: physicochemical; conditions: organic solvent or mixture, thermodynamic from solid, solvent: methyl ethyl ketone; amorphous obtained by Preparation Method 3
TEST READOUT: solubility

Q: // returns reported solubility for input Cc1ccsc1C(=CCCN1CCC[C@@H](C(=O)O)C1)c1sccc1C.Cl [tiagabine HCl amorphous, tiagabine hydrochloride]
Result: > 546 mg/mL

###

assay: Approximate solubility in various solvents by aliquot addition, visual dissolution; type: physicochemical; details: organic solvent or mixture, thermodynamic from solid, solvent: 1,4 dioxane/water (3:1); amorphous obtained by Preparation Method 3
TEST READOUT: solubility

Q: // returns reported solubility for input Cc1ccsc1C(=CCCN1CCC[C@@H](C(=O)O)C1)c1sccc1C.Cl [tiagabine HCl amorphous, tiagabine hydrochloride]
Result: > 359 mg/mL

###

assay: Approximate solubility in various solvents by aliquot addition, visual dissolution; assay type: physicochemical; conditions: water, thermodynamic from solid, solvent: Water; amorphous obtained by Preparation Method 3
TEST READOUT: solubility

Q: // returns reported solubility for input Cc1ccsc1C(=CCCN1CCC[C@@H](C(=O)O)C1)c1sccc1C.Cl [tiagabine HCl amorphous, tiagabine hydrochloride]
Result: > 490 mg/mL

###

experiment: Approximate solubility in various solvents by aliquot addition, visual dissolution; format: physicochemical; settings: organic solvent or mixture, thermodynamic from solid, solvent: ethanol/water (10:1); amorphous obtained by Preparation Method 3
TEST READOUT: solubility

Q: // returns reported solubility for input Cc1ccsc1C(=CCCN1CCC[C@@H](C(=O)O)C1)c1sccc1C.Cl [tiagabine HCl amorphous, tiagabine hydrochloride]
Result: > 400 mg/mL

###

experiment: Approximate solubility in various solvents by aliquot addition, visual dissolution; assay type: physicochemical; details: organic solvent or mixture, thermodynamic from solid, solvent: Toluene; amorphous obtained by Preparation Method 3
TEST READOUT: solubility

Q: // returns reported solubility for input Cc1ccsc1C(=CCCN1CCC[C@@H](C(=O)O)C1)c1sccc1C.Cl [tiagabine HCl amorphous, tiagabine hydrochloride]
Result: < 43 mg/mL
